Experiment: Live-cell imaging (IncuCyte HD) of proliferation and cytotoxicity, K562 cells
Type: cell-based, human
Settings: human, K562 cells; K562, continuous exposure over 4-day period, area under curve; read-out: EC50AUC, cytotoxic effect
Measurement label: EC50 at 4 days (nM)

compound="N#Cc1ccc(C2C3=C(CCCC3=O)OC3=C2C(=O)c2ccccc2C3=O)cc1 (stereo not shown)" reported=1100

* * *

Test system: K562-R cells
Test: MTT cell viability assay, IM-resistant K562-R cells
Type: cell-based, human
Settings: Homo sapiens, K-562R, 72 h, MTT (Fig 10D)
Procedure: All cell lines were purchased from the American Type Culture Collection (ATCC). The cell lines were growth at 37°C under 5% CO2 under humidified atmosphere. […] The mitochondrial metabolization of the tetrazolium salt 3-(4,5-methyltiazol-2yl-)-2,5diphenyl-tetrazolium bromide] […] Optical density was measured at 595 nm with the iMark Microplate Reader (BioRad, CA, USA).
Measurement label: IC50

compound="N#Cc1ccc(C2C3=C(CCCC3=O)OC3=C2C(=O)c2ccccc2C3=O)cc1 (stereo not shown)" study_target="K562-R cells" reported="~600 nM"

* * *

Test system: MV4.11 cells
Experiment: MTT cell viability assay, MV4.11 cells
Type: cell-based
Conditions: Homo sapiens, MV4.11, 48 h, read-out: IC50 (μM) Mean ± SD
Measurement label: IC50 (µM)

molecule="N#Cc1ccc(C2C3=C(CCCC3=O)OC3=C2C(=O)c2ccccc2C3=O)cc1 (stereo not shown)" measurement_label=IC50 reported=1.2

* * *

System: K562 cells
Experiment: MTT cell viability assay, K562 cells
Type: cell-based, human
Details: Homo sapiens; K562, 48 h, MTT; read-out: IC50 (μM) Mean ± SD
Measurement label: IC50 (µM)

compound="N#Cc1ccc(C2C3=C(CCCC3=O)OC3=C2C(=O)c2ccccc2C3=O)cc1 (stereo not shown) [CM363]" reported=0.7

* * *

Tested on: MG63 cells
Assay: MTT cell viability assay, MG63 cells
Type: cell-based
Conditions: Homo sapiens, MG-63, MG63, 48 h, read-out: IC50 (μM) Mean ± SD
Measurement label: IC50 (µM)

compound="N#Cc1ccc(C2C3=C(CCCC3=O)OC3=C2C(=O)c2ccccc2C3=O)cc1 (stereo not shown)" study_target="MG63 cells" reported=1.6

* * *

System: SKBR3 cells
Assay: MTT cell viability assay, SKBR3 cells
Format: cell-based
Details: Homo sapiens, SK-BR-3, SKBR3, 48 h, read-out: IC50 (μM) Mean ± SD
Measurement label: IC50 (µM)

compound="N#Cc1ccc(C2C3=C(CCCC3=O)OC3=C2C(=O)c2ccccc2C3=O)cc1 (stereo not shown)" study_target="SKBR3 cells" display_unit=µM reported=2.6

Every entry's value here was drawn from paper PMC5444695.
